target: kinase domain of PDGFRβ (Homo sapiens, UniProt P09619); construct: The kinase domain of PDGFRβ was assayed in 50 mM Hepes; purchased Invitrogen P3082; test: Inhibition of PDGFRb kinase signaling in an in vitro biochemical assay (alphascreen); conditions: tested at about 1 μM; read-out: PDGFRβ percent inhibition
Sequence (P09619 600-962 limits assumed): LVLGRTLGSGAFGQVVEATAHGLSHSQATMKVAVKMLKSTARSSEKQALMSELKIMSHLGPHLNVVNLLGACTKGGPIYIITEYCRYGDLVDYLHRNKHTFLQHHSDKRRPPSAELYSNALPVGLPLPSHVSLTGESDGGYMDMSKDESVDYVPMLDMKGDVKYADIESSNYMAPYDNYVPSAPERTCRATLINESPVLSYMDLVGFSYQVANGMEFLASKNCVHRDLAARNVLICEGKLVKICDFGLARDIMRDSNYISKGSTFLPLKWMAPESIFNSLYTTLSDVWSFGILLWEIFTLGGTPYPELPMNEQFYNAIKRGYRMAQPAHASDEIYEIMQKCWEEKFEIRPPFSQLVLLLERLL
property label: inhibition at 1 µM (%)
Answer in %, number only, no unit symbol.

Prompt line: Find the recorded inhibition at 1 µM belonging to CNC(=O)c1cc(Oc2ccc3nc(N[C@H](C)c4cccc5ccccc45)oc3c2)ccn1 and report it.
Response line: 35

Prompt line: Find the recorded inhibition at 1 µM belonging to CNC(=O)c1cc(Oc2ccc3nc(NCc4cccc(Cl)c4)oc3c2)ccn1 and report it.
Response line: 12

Prompt line: Find the recorded inhibition at 1 µM belonging to CNC(=O)c1cc(Oc2ccc3nc(NCC4CCCCC4)oc3c2)ccn1 and report it.
Response line: 0

Prompt line: Find the recorded inhibition at 1 µM belonging to CNC(=O)c1cc(Oc2ccc3nc(NCc4ccc(Cl)cc4)oc3c2)ccn1 and report it.
Response line: 28

Prompt line: Find the recorded inhibition at 1 µM belonging to CC(=O)Nc1cc(Oc2ccc3nc(NCC4CCCCC4)oc3c2)ccn1 and report it.
Response line: 89

Prompt line: Find the recorded inhibition at 1 µM belonging to CNC(=O)c1cc(Oc2ccc3nc(Nc4ccc(OC)cc4OC)oc3c2)ccn1 and report it.
Response line: 98

Prompt line: Find the recorded inhibition at 1 µM belonging to CNC(=O)c1cc(Oc2ccc3nc(NC4CCCC(C)C4)oc3c2)ccn1 (stereo not drawn) and report it.
Response line: 35

Prompt line: Find the recorded inhibition at 1 µM belonging to CNC(=O)c1cc(Oc2ccc3nc(N[C@H]4C[C@H]5C[C@@H]([C@@H]4C)C5(C)C)oc3c2)ccn1 and report it.
Response line: 65

Prompt line: Find the recorded inhibition at 1 µM belonging to CNC(=O)c1cc(Oc2ccc3nc(NC[C@@H]4C[C@H]5CC[C@@H]4C5(C)C)oc3c2)ccn1 and report it.
Response line: 88

###

target: full-length human CSF-1R receptor (Homo sapiens, UniProt P07333); construct: transfected with the full-length human CSF-1R receptor cloned in house; expressed in transfected cells; host or cells: HEK293H (Invitrogen Cat. #11631017); assay: In vitro inhibition of CSF-1R receptor tyrosine phosphorylation in transfected HEK293H cells stimulated with MCSF; format: cell-based; details: HEK293-H, tested at about 1 μM; HEK293H cells; read-out: pCSF1R percent inhibition
Sequence (P07333 20-972): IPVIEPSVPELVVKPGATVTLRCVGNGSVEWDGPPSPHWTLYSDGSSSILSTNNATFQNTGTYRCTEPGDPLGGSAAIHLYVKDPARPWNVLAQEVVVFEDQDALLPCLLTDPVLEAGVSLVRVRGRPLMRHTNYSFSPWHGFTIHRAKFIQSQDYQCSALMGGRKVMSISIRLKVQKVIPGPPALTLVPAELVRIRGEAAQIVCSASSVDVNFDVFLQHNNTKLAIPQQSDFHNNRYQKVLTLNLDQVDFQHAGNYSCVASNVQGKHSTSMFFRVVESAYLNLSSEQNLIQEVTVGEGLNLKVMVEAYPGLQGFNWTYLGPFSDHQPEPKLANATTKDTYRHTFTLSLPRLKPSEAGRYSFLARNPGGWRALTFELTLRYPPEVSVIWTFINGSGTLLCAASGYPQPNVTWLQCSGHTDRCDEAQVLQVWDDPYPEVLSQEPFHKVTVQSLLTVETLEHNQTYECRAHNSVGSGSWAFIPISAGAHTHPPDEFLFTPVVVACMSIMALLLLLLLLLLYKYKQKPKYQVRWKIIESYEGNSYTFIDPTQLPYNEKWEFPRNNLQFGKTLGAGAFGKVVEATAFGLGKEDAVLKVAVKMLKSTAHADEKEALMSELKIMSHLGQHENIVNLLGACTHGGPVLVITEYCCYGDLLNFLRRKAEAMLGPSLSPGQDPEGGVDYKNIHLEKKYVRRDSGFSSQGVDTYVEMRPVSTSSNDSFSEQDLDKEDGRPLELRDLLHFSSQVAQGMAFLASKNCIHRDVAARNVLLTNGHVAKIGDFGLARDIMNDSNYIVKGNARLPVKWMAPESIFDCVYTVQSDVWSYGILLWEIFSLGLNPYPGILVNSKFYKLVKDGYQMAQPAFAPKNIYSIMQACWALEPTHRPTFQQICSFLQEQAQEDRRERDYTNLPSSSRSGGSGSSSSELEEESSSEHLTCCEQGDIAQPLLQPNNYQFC
Exercise: for every item that follows, state its recorded inhibition at 1 µM.
Answer in %, number only, no unit symbol.

Prompt line: Find the recorded inhibition at 1 µM belonging to CNC(=O)c1cc(Oc2ccc3nc(NCc4ccccc4F)oc3c2)ccn1 [Compound 16] and report it.
Response line: 81

Prompt line: Find the recorded inhibition at 1 µM belonging to CNC(=O)c1cc(Oc2ccc3nc(Nc4ccc5c(c4)OCCO5)oc3c2)ccn1 [Compound 5] and report it.
Response line: 93

Prompt line: Find the recorded inhibition at 1 µM belonging to CNC(=O)c1cc(Oc2ccc3nc(Nc4ccccc4CN4CCOCC4)oc3c2)ccn1 [Compound 25] and report it.
Response line: 35

###

biological target: kinase domain of PDGFRβ (Homo sapiens, UniProt P09619); construct: The kinase domain of PDGFRβ was assayed in 50 mM Hepes; purchased Invitrogen P3082; experiment: Inhibition of PDGFRb kinase signaling in an in vitro biochemical assay (alphascreen); details: tested at about 1 μM; read-out: PDGFRβ percent inhibition
property label: inhibition at 1 µM (%)
Answer in %, number only, no unit symbol.

Prompt line: Find the recorded inhibition at 1 µM belonging to COc1cc2nccc(Oc3ccc4nc(N[C@H](C)c5ccccc5)oc4c3)c2cc1OC and report it.
Response line: 85

Prompt line: Find the recorded inhibition at 1 µM belonging to CNC(=O)c1cc(Oc2ccc3nc(Nc4ccccc4CN4CCOCC4)oc3c2)ccn1 and report it.
Response line: 7

Prompt line: Find the recorded inhibition at 1 µM belonging to CNC(=O)c1cc(Oc2ccc3nc(NCc4ccccc4F)oc3c2)ccn1 and report it.
Response line: 20

Prompt line: Find the recorded inhibition at 1 µM belonging to CC(=O)Nc1cc(Oc2ccc3nc(NCc4ccccc4Cl)oc3c2)ccn1 and report it.
Response line: 22

Prompt line: Find the recorded inhibition at 1 µM belonging to CNC(=O)c1cc(Oc2ccc3nc(NCc4ccccc4)oc3c2)ccn1 and report it.
Response line: 30

###

target: full-length human CSF-1R receptor (Homo sapiens, UniProt P07333); construct: transfected with the full-length human CSF-1R receptor cloned in house; expressed in transfected cells; host or cells: HEK293H (Invitrogen Cat. #11631017); assay: In vitro inhibition of CSF-1R receptor tyrosine phosphorylation in transfected HEK293H cells stimulated with MCSF; assay type: cell-based; details: HEK293-H, tested at about 1 μM; HEK293H cells; read-out: pCSF1R percent inhibition
Exercise: for every item that follows, state its recorded inhibition at 1 µM.
Record the result as a number with its unit.

Prompt line: Find the recorded inhibition at 1 µM belonging to CNC(=O)c1cc(Oc2ccc3nc(NC[C@@H]4C[C@H]5CC[C@@H]4C5(C)C)oc3c2)ccn1 and report it.
Response line: 92%

Prompt line: Find the recorded inhibition at 1 µM belonging to CNC(=O)c1cc(Oc2ccc3nc(N[C@H](C)c4cccc5ccccc45)oc3c2)ccn1 and report it.
Response line: 74%

Prompt line: Find the recorded inhibition at 1 µM belonging to CC(=O)Nc1cc(Oc2ccc3nc(NCc4ccccc4Cl)oc3c2)ccn1 and report it.
Response line: 93%
